Source: ChEMBL document CHEMBL3397041

- Procedure Text: Antioxidant activity assessed as DPPH scavenging activity after 30 mins by spectrophotometry
- Type: physicochemical
Provide the reported IC50 of each item.
# value in uM/ml; strip the unit string

Task item: # return recorded IC50 for input Cc1cc(C(C)(C)C)c(O)c(C(C)(C)C)c1 [BUTYLATED HYDROXYTOLUENE]
Reply: 114

Task item: # return recorded IC50 for input `COc1cc(/C=N/NC(=O)CCc2nc3ccccc3c(=O)[nH]2)cc(OC)c1O`
Reply: 126

Task item: # return recorded IC50 for input `O=C(CCc1nc2ccccc2c(=O)[nH]1)N/N=C/c1ccc([N+](=O)[O-])cc1`
Reply: 328

Task item: # return recorded IC50 for input `O=C(CCCc1nc2ccccc2c(=O)[nH]1)N/N=C/c1ccc(O)cc1`
Reply: 214

Task item: # return recorded IC50 for input `COc1cc(/C=N/NC(=O)CCCc2nc3ccccc3c(=O)[nH]2)cc(OC)c1O`
Reply: 97

###

- Procedure Text: Antioxidant activity assessed as DPPH scavenging activity after 30 mins by spectrophotometry
- Type: physicochemical
Experimental Readout: IC50
# output: number + unit

Task item: # return recorded IC50 for input `COc1cc(/C=N/NC(=O)CCc2nc3ccccc3c(=O)[nH]2)cc(O)c1O`
Reply: 104 uM/ml

Task item: # return recorded IC50 for input `O=C(CCc1nc2ccccc2c(=O)[nH]1)N/N=C/c1cc(O)c(O)c(O)c1`
Reply: 81 uM/ml

Task item: # return recorded IC50 for input `O=C(CCCc1nc2ccccc2c(=O)[nH]1)N/N=C/c1cc(O)c(O)c(O)c1`
Reply: 78 uM/ml

Task item: # return recorded IC50 for input `COc1cc(/C=N/NC(=O)CCc2nc3ccccc3c(=O)[nH]2)cc(OC)c1OC`
Reply: 85 uM/ml

Task item: # return recorded IC50 for input `O=C(CCCc1nc2ccccc2c(=O)[nH]1)N/N=C/c1ccc(O)c(O)c1`
Reply: 95 uM/ml

###

Provide the reported IC50 of each item.
- Procedure Text: Antiinflammatory activity in human erythrocytes assessed as inhibition of hypotonic solution-induced hemolysis after 10 mins by spectrophotometry
- Type: functional, cell-based
- Condition: erythrocyte
# value in uM/ml; strip the unit string

Task item: # return recorded IC50 for input `COC(=O)CCc1nc2ccccc2c(=O)[nH]1.Cl`
Reply: 1163

Task item: # return recorded IC50 for input `COc1cc(/C=N/NC(=O)CCc2nc3ccccc3c(=O)[nH]2)cc(O)c1O`
Reply: 261

Task item: # return recorded IC50 for input `COc1cc(/C=N/NC(=O)CCCc2nc3ccccc3c(=O)[nH]2)cc(O)c1O`
Reply: 277

Task item: # return recorded IC50 for input `O=C(CCCc1nc2ccccc2c(=O)[nH]1)N/N=C/c1ccc(O)c(O)c1`
Reply: 300

Task item: # return recorded IC50 for input `COc1cc(/C=N/NC(=O)CCCc2nc3ccccc3c(=O)[nH]2)cc(OC)c1O`
Reply: 524

Task item: # return recorded IC50 for input `O=C(CCc1nc2ccccc2c(=O)[nH]1)N/N=C/c1ccc(O)c(O)c1`
Reply: 255

Task item: # return recorded IC50 for input `O=C(CCCc1nc2ccccc2c(=O)[nH]1)N/N=C/c1ccc(Cl)cc1`
Reply: 67

Task item: # return recorded IC50 for input `O=C(CCCc1nc2ccccc2c(=O)[nH]1)N/N=C/c1cc(O)c(O)c(O)c1`
Reply: 183

Task item: # return recorded IC50 for input `COc1cc(/C=N/NC(=O)CCc2nc3ccccc3c(=O)[nH]2)cc(OC)c1OC`
Reply: 682

Task item: # return recorded IC50 for input `COc1cc(/C=N/NC(=O)CCCc2nc3ccccc3c(=O)[nH]2)cc(OC)c1OC`
Reply: 613

Task item: # return recorded IC50 for input `O=C(CCCc1nc2ccccc2c(=O)[nH]1)N/N=C/c1ccc([N+](=O)[O-])cc1`
Reply: 52

Task item: # return recorded IC50 for input CC(=O)Oc1ccccc1C(=O)O [ASPIRIN]
Reply: 166

Task item: # return recorded IC50 for input `COc1cc(/C=N/NC(=O)CCc2nc3ccccc3c(=O)[nH]2)cc(OC)c1O`
Reply: 530

Task item: # return recorded IC50 for input `COC(=O)CCCc1nc2ccccc2c(=O)[nH]1.Cl`
Reply: 975

Task item: # return recorded IC50 for input `O=C(CCc1nc2ccccc2c(=O)[nH]1)N/N=C/c1ccc(Cl)cc1`
Reply: 84

Task item: # return recorded IC50 for input `O=C(CCc1nc2ccccc2c(=O)[nH]1)N/N=C/c1cc(O)c(O)c(O)c1`
Reply: 203

Task item: # return recorded IC50 for input `O=C(CCc1nc2ccccc2c(=O)[nH]1)N/N=C/c1ccc([N+](=O)[O-])cc1`
Reply: 54

###

- Procedure Text: Antioxidant activity assessed as DMPD scavenging activity after 15 mins by spectrophotometry
- Assay type: physicochemical
Provide the reported IC50 of each item.
# value in uM/ml; strip the unit string

Task item: # return recorded IC50 for input `COc1ccc(/C=N/NC(=O)CCCc2nc3ccccc3c(=O)[nH]2)cc1`
Reply: 280

Task item: # return recorded IC50 for input `COc1cc(/C=N/NC(=O)CCc2nc3ccccc3c(=O)[nH]2)cc(OC)c1O`
Reply: 275

Task item: # return recorded IC50 for input `O=C1O[C@H]([C@@H](O)CO)C(O)=C1O`
Reply: 140

Task item: # return recorded IC50 for input `O=C(CCc1nc2ccccc2c(=O)[nH]1)N/N=C/c1ccc(O)c(O)c1`
Reply: 105

Task item: # return recorded IC50 for input `O=C(CCc1nc2ccccc2c(=O)[nH]1)N/N=C/c1ccc(O)cc1`
Reply: 300

Task item: # return recorded IC50 for input `COc1cc(/C=N/NC(=O)CCc2nc3ccccc3c(=O)[nH]2)ccc1O`
Reply: 290

Task item: # return recorded IC50 for input `COc1cc(/C=N/NC(=O)CCCc2nc3ccccc3c(=O)[nH]2)cc(O)c1O`
Reply: 80

Task item: # return recorded IC50 for input `COc1cc(/C=N/NC(=O)CCCc2nc3ccccc3c(=O)[nH]2)cc(OC)c1OC`
Reply: 85

Task item: # return recorded IC50 for input `O=C(CCCc1nc2ccccc2c(=O)[nH]1)N/N=C/c1ccc(O)c(O)c1`
Reply: 75

Task item: # return recorded IC50 for input `COc1cc(/C=N/NC(=O)CCCc2nc3ccccc3c(=O)[nH]2)ccc1O`
Reply: 280

Task item: # return recorded IC50 for input `COc1cc(/C=N/NC(=O)CCCc2nc3ccccc3c(=O)[nH]2)cc(OC)c1O`
Reply: 225

Task item: # return recorded IC50 for input `O=C(CCCc1nc2ccccc2c(=O)[nH]1)N/N=C/c1cc(O)c(O)c(O)c1`
Reply: 45

Task item: # return recorded IC50 for input `COc1cc(/C=N/NC(=O)CCc2nc3ccccc3c(=O)[nH]2)cc(OC)c1OC`
Reply: 80

Task item: # return recorded IC50 for input `O=C(O)c1cc(O)c(O)c(O)c1`
Reply: 100

Task item: # return recorded IC50 for input `O=C(CCc1nc2ccccc2c(=O)[nH]1)N/N=C/c1cc(O)c(O)c(O)c1`
Reply: 45

Task item: # return recorded IC50 for input `COc1cc(/C=N/NC(=O)CCc2nc3ccccc3c(=O)[nH]2)cc(O)c1O`
Reply: 50

###

- Procedure Text: Antioxidant activity assessed as DPPH scavenging activity after 30 mins by spectrophotometry
- Format: physicochemical
Could you mark each record true if its IC50 falls strictly under 400 uM/ml, and false if it equals or exceeds it?

Task item: Confirm or reject: IC50 of `O=C(CCCc1nc2ccccc2c(=O)[nH]1)N/N=C/c1ccc(Cl)cc1` lies strictly below 400 uM/ml
Reply: true

Task item: Confirm or reject: IC50 of `COc1cc(/C=N/NC(=O)CCCc2nc3ccccc3c(=O)[nH]2)cc(O)c1O` lies strictly below 400 uM/ml
Reply: true

Task item: Confirm or reject: IC50 of `O=C(CCc1nc2ccccc2c(=O)[nH]1)N/N=C/c1ccc(O)c(O)c1` lies strictly below 400 uM/ml
Reply: true

Task item: Confirm or reject: IC50 of `COc1ccc(/C=N/NC(=O)CCc2nc3ccccc3c(=O)[nH]2)cc1` lies strictly below 400 uM/ml
Reply: true

Task item: Confirm or reject: IC50 of `O=C(CCc1nc2ccccc2c(=O)[nH]1)N/N=C/c1ccccc1` lies strictly below 400 uM/ml
Reply: false

Task item: Confirm or reject: IC50 of `O=C(O)CCCc1nc2ccccc2c(=O)[nH]1` lies strictly below 400 uM/ml
Reply: false

Task item: Confirm or reject: IC50 of `COC(=O)CCCc1nc2ccccc2c(=O)[nH]1.Cl` lies strictly below 400 uM/ml
Reply: false

Task item: Confirm or reject: IC50 of `O=C(CCCc1nc2ccccc2c(=O)[nH]1)N/N=C/c1ccccc1` lies strictly below 400 uM/ml
Reply: false

Task item: Confirm or reject: IC50 of `COc1cc(/C=N/NC(=O)CCc2nc3ccccc3c(=O)[nH]2)ccc1O` lies strictly below 400 uM/ml
Reply: true

Task item: Confirm or reject: IC50 of `COc1ccc(/C=N/NC(=O)CCCc2nc3ccccc3c(=O)[nH]2)cc1` lies strictly below 400 uM/ml
Reply: true

Task item: Confirm or reject: IC50 of `COc1cc(/C=N/NC(=O)CCCc2nc3ccccc3c(=O)[nH]2)ccc1O` lies strictly below 400 uM/ml
Reply: true

Task item: Confirm or reject: IC50 of `O=C(O)CCc1nc(O)c2ccccc2n1` lies strictly below 400 uM/ml
Reply: false

Task item: Confirm or reject: IC50 of `COc1cc(/C=N/NC(=O)CCCc2nc3ccccc3c(=O)[nH]2)cc(OC)c1OC` lies strictly below 400 uM/ml
Reply: true

Task item: Confirm or reject: IC50 of `O=C(CCCc1nc2ccccc2c(=O)[nH]1)N/N=C/c1ccc([N+](=O)[O-])cc1` lies strictly below 400 uM/ml
Reply: true

Task item: Confirm or reject: IC50 of `COC(=O)CCc1nc2ccccc2c(=O)[nH]1.Cl` lies strictly below 400 uM/ml
Reply: false

Task item: Confirm or reject: IC50 of `O=C(CCc1nc2ccccc2c(=O)[nH]1)N/N=C/c1ccc(Cl)cc1` lies strictly below 400 uM/ml
Reply: true

Task item: Confirm or reject: IC50 of `O=C(CCc1nc2ccccc2c(=O)[nH]1)N/N=C/c1ccc(O)cc1` lies strictly below 400 uM/ml
Reply: true
